Tested on: RARa homodimer (NR concentration 270 nM)
Experiment: PBM binding z-score (relative to random genomic background probes); higher = stronger binding; sequences stand for … in GC…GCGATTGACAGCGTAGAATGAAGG
rule met means recorded PBM binding z-score is 0.7 or above; rule not met means it is below 0.7.

Worked examples, 3 sequences total:
{"columns": ["sequence.content", "answer.label"],
 "data": [
  ["TTGCCAAGGTGAAAGGTCGTTGATGCACGCCTTG", "rule not met"],
  ["ATATGTAGGTTAGCTGGGGTCATTCACACTAGGC", "rule met"],
  ["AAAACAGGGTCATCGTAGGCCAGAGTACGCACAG", "rule met"]
]}

## Task Check this sequence for PBM binding z-score at or above 0.7: TCTCGGAGGACACAAAGGTCAGAGCTTTCCAGAG
## Result rule met

## Task Hi team, for CGTCCAAGGTCATAGGAGGTCAATGAAGACAGAT , is the recorded PBM binding z-score at or above 0.7?
## Result rule met

## Task Record TCTCGGAGGTCACGAAAGGTCAGAGCTCGACATC ; criterion: PBM binding z-score no lower than 0.7. Met?
## Result rule met

## Task Has CTATGTAGGTCAAGGGGGTCATTCAGTTTGAAAG a recorded PBM binding z-score greater than or equal to 0.7?
## Result rule met

## Task Has CGAACGAGGTCATGAGTTGATAGCAAATGCCGAT a recorded PBM binding z-score greater than or equal to 0.7?
## Result rule not met

## Task Form field: PBM binding z-score at least 0.7? Entry: ATATGTAGGTTAAGCGTCATTCAGGTTGGTTCGC
## Result rule not met

## Task Does the sequence ATTTGTAGGTTACATCCGGGTCATTCAGGCTATG have recorded PBM binding z-score that is 0.7 or more?
## Result rule met

## Task Hi, just wondering whether CCTACTGGGCCATTCAGAGGGCATTGATCATATG shows PBM binding z-score of 0.7 or higher.
## Result rule not met

###

Test system: THRa homodimer (NR concentration 90 nM)
Experiment: PBM binding z-score (relative to random genomic background probes); higher = stronger binding; sequences stand for … in GC…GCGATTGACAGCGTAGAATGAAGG
measured.metric: PBM binding z-score
Respond with the number and no other words.

Sample records with PBM binding z-score:
{"columns": ["sequence.content", "PBM binding z-score"],
 "data": [
  ["CAAACGAGGTCAAGGTCAAAGTCGGTTTGTGCCA", 4.79],
  ["CGTCCAAGGTCACAGAGGTCAGTGAATGCCGAGT", 3.95],
  ["CCTACTGGGCCAAAAAGTTCATTGATGCCGATAA", -0.23],
  ["TACCCTAGGTCATGGGCCAGTATACCACGCGAAC", 2.22],
  ["TCTAGTCGGTCAAAGGTCACACACTCGAAATGCG", 2.24],
  ["AATACAGGGTAACTAGGCCAGAGTAGGTACGAAT", -0.0802]
]}

Now, please, on to the next sequence.
## Task Provide measured PBM binding z-score on THRa homodimer (NR concentration 90 nM) for CCTACTGGGCCAAAGGTGATTGATTCCAATGCTC please.
## Result -0.0264

###

System: RARb:RXRa (NR concentration 270 nM, RXRa partner concentration 90 nM)
Test: PBM binding z-score (relative to random genomic background probes); higher = stronger binding; sequences stand for … in GC…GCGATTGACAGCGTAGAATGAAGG
measured.metric: PBM binding z-score
Would you mind answering with just the numeric figure?

{"columns": ["sequence.content", "PBM binding z-score"],
 "data": [
  ["CGAACTAGGTCATCCAGGTCAGTGAATACATTGA", 4.3],
  ["CGAACAAGGTCATTGACAGGACAGTGAATAGTAA", 5],
  ["CCGAGTTGGTCAAGGTCACACACGCTATAGGTAC", 4.17],
  ["AATACAGGGTCATCGTAGGTCAGAGTACGCACAG", 4.69],
  ["TATACAAGGTCAAAGGCCAGAGTACGAATGTCGA", 5.27],
  ["ACTCGGATGACAAAGGTCAGAGCTACGCCAGTGA", 4.12],
  ["TTACCAAGGTGAAAGGTCGTTGCTGCACGCCTTG", 3.14],
  ["ATCAAAAGGTCGAGGTGAGTATAGAGAAAGGGAA", 4.53],
  ["TAGCCTAGGTCATGCGGCCCAGTATAGTGTCGGC", 3.72],
  ["CAAACTAGGTCAAGAGGTCAAAGTTCGCTTCCCG", 5.51]
]}

## Task Note down PBM binding z-score recorded for CGTCCAAGGTCATAGAGGTCAGTGAATGCCGAGT
## Result 5.39

## Task Kindly indicate its recorded PBM binding z-score. Item: AGTCAAAGTGCATCTAGGTAACGTAAGATATGCT
## Result 1.53

###

Below is a list of entries, each paired with its recorded PBM binding z-score value.
Tested on: PXR:RXRa (NR concentration 270 nM, RXRa partner concentration 90 nM)
Experiment: PBM binding z-score (relative to random genomic background probes); higher = stronger binding; sequences stand for … in GC…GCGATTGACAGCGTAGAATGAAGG
Reply with just the number.

{"columns": ["sequence.content", "experimental.result"],
 "data": [
  ["CCTACTGGGCCAAAGAGGTCATTGATGCCGATAA", 4.81],
  ["CGTCCAAAGTCAAAGGTCAGTGAAGAGATGACGG", 3.97]
]}

## Task Identify measured PBM binding z-score corresponding to CAAACTAGGTCACTAAAGGTCAAAGTCGAATGAC
## Result 6.84

## Task Please supply the value of reported PBM binding z-score for the item CGTCCAAGGTCAAAGGTCAATGAAGAGATGACGG
## Result 7.05

## Task Query PBM binding z-score for AGAATGAGGTCATACGTAGATCAGGGAAGAAAGT
## Result 4.89

## Task Supply reported PBM binding z-score belonging to this sequence: TAGCCTAGGTCGTTCAGGGGCCAGTATAGAAAGC
## Result 0.589

###

Tested on: PPARa:RXRa (NR concentration 270 nM, RXRa partner concentration 90 nM)
Assay: PBM binding z-score (relative to random genomic background probes); higher = stronger binding; sequences stand for … in GC…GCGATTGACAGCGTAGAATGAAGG
Lab note: anything with PBM binding z-score at or over 5 counts as label 1; the rest go in label 0.

Below are worked cases with known answers.
{"columns": ["sequence.content", "target.or.system", "answer.label"],
 "data": [
  ["CGTCCAAGGTCAATGCTAGATCAGTGAAAGCATT", "PPARa:RXRa (NR concentration 270 nM, RXRa partner concentration 90 nM)", "label 0"],
  ["CTATGTAGGTTAAGGGAGTCATTCAGTTTGAAAG", "PPARa:RXRa (NR concentration 270 nM, RXRa partner concentration 90 nM)", "label 0"],
  ["TCTAGTTGGTCACGGAGGACACACACGACGGGTA", "PPARa:RXRa (NR concentration 270 nM, RXRa partner concentration 90 nM)", "label 0"],
  ["TAGCCTAGTTCATGCGGGCCAGTATAGTGTCGGC", "PPARa:RXRa (NR concentration 270 nM, RXRa partner concentration 90 nM)", "label 0"],
  ["TGTCAACGTTCAAAGGTAACGTAAGTATCCACAC", "PPARa:RXRa (NR concentration 270 nM, RXRa partner concentration 90 nM)", "label 0"]
]}

## Task Evaluate TCTAGTTGGTCACGGAGGTCACAAACGACGGGTA : PBM binding z-score at minimum 5?
## Result label 0

## Task Textbook exercise: given the entry CGTCCAAGGTCATATGAGGTCAGTGAAGACAGAT , state whether its PBM binding z-score is greater than or equal to 5.
## Result label 1

###

Measured PBM binding z-score accompanies every entry in the list below.
System: LXRb homodimer (NR concentration 270 nM)
Test: PBM binding z-score (relative to random genomic background probes); higher = stronger binding; sequences stand for … in GC…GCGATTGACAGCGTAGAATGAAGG
No unit in the answer, only the number.

Consider the reported PBM binding z-score for these sequences:
{"columns": ["sequence.content", "experimental.result"],
 "data": [
  ["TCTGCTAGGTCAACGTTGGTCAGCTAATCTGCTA", 0.362],
  ["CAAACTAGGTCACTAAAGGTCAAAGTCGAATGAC", 4.07],
  ["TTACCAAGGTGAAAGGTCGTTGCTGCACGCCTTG", -0.185],
  ["CCTTACGGGTCAAGGTTATAGCCCGGGTGGTACG", -0.334],
  ["TATACAGGGTCAAAGGCCAAAGTACGAATGTCGA", 2.44],
  ["CCTTAGGGGTCAAGGTTATAGCACGGGTGGTACG", 1.15]
]}

## Task Please give the documented PBM binding z-score of CGTCCAAGGTCAGCGGGTCAGTGAAAGCGACGTG
## Result -0.324

## Task Tell me its PBM binding z-score given CCTACTGGGCCAAAAAGGTCATTGATGCCGATAA as the entry.
## Result -0.142

## Task Query PBM binding z-score for ATATGTAGGTTACATCCGGGTCATCCAGGCTATG
## Result 0.838
